Target chain: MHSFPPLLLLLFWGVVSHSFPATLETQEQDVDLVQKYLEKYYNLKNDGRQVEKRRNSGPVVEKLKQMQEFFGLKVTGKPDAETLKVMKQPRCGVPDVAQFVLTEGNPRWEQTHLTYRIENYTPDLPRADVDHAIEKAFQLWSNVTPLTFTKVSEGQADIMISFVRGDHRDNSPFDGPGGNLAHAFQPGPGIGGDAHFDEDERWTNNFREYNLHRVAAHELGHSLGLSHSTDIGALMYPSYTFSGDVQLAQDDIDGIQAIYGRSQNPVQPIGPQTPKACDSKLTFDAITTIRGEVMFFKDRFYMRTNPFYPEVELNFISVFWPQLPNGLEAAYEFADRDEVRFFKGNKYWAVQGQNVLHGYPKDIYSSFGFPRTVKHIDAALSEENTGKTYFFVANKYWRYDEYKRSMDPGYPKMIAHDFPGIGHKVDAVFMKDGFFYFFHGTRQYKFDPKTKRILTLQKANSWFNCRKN
// reported IC50 per item
Please respond with the number in nM and leave the unit unwritten.

[[record]]
query_smiles = "COc1ccc(S(=O)(=O)N(C)c2c(C(=O)NO)cc(Br)cc2C2CCN(C)CC2)cc1"
readout_value = 194


Moving on to another compound below.
Query: Give a short answer stating reported IC50 for `CC#CCOc1ccc(S(=O)(=O)N(C)c2c(C(=O)NO)cc(-c3ccccc3)cc2C2CCN(C)CC2)cc1` .
Reply: 1920

These entries and their values trace back to ChEMBL document CHEMBL1135289.
